Property: pIC50; scope: individual molecules
Target or test system: UniProt O42275
Sequence (O42275 whole entry): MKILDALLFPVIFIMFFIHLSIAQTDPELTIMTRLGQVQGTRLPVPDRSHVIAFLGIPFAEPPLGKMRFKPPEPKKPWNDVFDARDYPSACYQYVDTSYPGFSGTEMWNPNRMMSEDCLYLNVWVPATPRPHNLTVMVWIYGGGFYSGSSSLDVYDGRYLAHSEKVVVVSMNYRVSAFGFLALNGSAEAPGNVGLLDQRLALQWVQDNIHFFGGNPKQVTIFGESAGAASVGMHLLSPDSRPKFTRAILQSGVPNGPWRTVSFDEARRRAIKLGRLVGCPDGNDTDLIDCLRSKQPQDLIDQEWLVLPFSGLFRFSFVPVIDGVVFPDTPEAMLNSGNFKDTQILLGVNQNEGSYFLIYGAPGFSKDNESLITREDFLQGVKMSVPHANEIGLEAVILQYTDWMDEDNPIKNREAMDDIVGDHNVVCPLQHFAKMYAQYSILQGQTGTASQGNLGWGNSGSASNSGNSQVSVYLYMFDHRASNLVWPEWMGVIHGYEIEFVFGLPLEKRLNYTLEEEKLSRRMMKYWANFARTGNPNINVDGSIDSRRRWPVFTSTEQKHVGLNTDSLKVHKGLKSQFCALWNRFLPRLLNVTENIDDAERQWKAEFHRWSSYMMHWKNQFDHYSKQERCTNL
pIC50: −log10 of the molar value.
Measurement name: pIC50

[[record]]
molecule = "CCCCCCCCCCCCCCC(c1cccc(OC(=O)N(C)C)c1)N(C)C (stereo not drawn)"
target_or_test_system = "UniProt O42275"
quantitative_readout = 4.30

[[record]]
molecule = "CCCCCCCCCCCCCCC(c1cccc(OC(=O)N(C)C)c1)N1CCCC1 (stereo not drawn)"
target_or_test_system = "UniProt O42275"
quantitative_readout = 4.07

[[record]]
molecule = "CCCCCCCCCCCCCCC(c1cccc(OC(=O)N(C)C)c1)N(CC)CC (stereo not drawn)"
target_or_test_system = "UniProt O42275"
quantitative_readout = 3.60


Data credit: ChEMBL document CHEMBL1153768
